FYI, the data here is from patent US20250019427A1.

- TESTED ON: T1, Cyno GDF15 Fc (cyno, UniProt G7PWZ3 193-308)
- T1 construct: also called cyno GDF15-Fc fusion
- T1 sequence: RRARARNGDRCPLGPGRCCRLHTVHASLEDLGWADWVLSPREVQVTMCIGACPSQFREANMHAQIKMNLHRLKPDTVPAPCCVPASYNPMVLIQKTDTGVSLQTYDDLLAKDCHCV
- MEASUREMENT DESCRIPTION: Octet BLI, Fab monovalent
Listed below: pKd values for each entry.
// pKd here means minus log10 of the molar concentration (mol/L)

Below, each entry is followed by its recorded pKd result.
1) Clone J Fab (Fab, V domains shown, Fab format) VH: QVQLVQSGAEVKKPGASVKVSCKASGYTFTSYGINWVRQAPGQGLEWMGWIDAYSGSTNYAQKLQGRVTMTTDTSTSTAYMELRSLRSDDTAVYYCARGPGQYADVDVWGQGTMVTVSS VL: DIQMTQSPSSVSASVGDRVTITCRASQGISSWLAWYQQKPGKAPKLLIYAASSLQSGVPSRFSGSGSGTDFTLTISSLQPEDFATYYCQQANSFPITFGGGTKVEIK: 9.11
2) Clone S Fab (Fab, V domains shown, Fab format) VH: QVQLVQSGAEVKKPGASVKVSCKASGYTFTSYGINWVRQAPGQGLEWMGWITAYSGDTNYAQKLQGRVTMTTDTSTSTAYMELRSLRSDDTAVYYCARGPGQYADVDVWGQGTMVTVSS VL: DIQLTQSPSSVSASVGDRVTITCRASQGISPWLAWYQQKPGKAPKLLIYAASSLQSGVPSRFSGSGSGTDFTLTISSLQPEDFATYYCQQANSFPITFGGGTKVEIK: 9.60
3) Clone K Fab (Fab, V domains shown, Fab format) VH: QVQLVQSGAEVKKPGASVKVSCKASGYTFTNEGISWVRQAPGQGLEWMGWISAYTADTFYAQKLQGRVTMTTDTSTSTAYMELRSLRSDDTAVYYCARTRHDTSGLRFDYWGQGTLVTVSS VL: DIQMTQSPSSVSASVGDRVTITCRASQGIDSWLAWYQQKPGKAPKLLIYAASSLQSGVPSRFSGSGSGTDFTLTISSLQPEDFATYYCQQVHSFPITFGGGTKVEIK: 8.62
4) Clone O Fab (Fab, V domains shown, Fab format) VH: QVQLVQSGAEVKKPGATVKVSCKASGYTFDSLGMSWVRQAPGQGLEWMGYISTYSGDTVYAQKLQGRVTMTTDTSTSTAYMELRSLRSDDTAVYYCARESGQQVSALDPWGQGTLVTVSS VL: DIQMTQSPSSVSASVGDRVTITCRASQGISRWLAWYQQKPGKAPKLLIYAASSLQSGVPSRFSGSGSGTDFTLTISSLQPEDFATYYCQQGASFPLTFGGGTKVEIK: 9.56

# ---- query binder ----
Look up pKd: Clone P Fab (Fab, V domains shown, Fab format) VH: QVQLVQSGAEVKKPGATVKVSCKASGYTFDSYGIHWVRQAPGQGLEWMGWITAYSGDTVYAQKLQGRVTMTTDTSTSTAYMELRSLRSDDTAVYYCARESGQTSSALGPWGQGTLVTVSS VL: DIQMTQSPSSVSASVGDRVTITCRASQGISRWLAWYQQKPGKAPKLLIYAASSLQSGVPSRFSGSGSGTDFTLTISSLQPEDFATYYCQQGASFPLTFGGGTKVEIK
8.76
